# viability per record follows
Assay: reducers of endogenous Her2 protein level, primary screen, SKBR3 breast tumor cells, AlphaScreen, ATP viability (AID 461);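 further: percent of carrier control wells set as 100% viability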
Conditions: 18-24 h, measured here: SKBR3 viability, ATP luminescence, at 10 µM
Give a bare numeral; the unit % is implied.

- MOLECULE: "O=C(COC(=O)c1cc(S(=O)(=O)N2CCOCC2)ccc1O)NCC1CCCO1 (centres undefined)"
  UNIT_TAG: "%"
  viability: 91.5

Query :: State the recorded viability for this entry: `CCOC(=O)c1c(C)n(C)c2ccc(O)c(S(=O)(=O)c3ccccc3)c12`
Result :: 91.5

Query :: Subsequent entry: CCCNC(=O)C1=C(C)C(=O)OC12CCC(C)CC2 (centres undefined)
Result :: 94.5

Query :: Subsequent entry: `COc1ccccc1C(=O)N1CCN(CCc2ccccc2)CC1`
Result :: 102

Query :: Subsequent entry: `CC(=O)NCc1ccc(C(=O)CSc2nnc(-c3ccncc3)n2Cc2ccccc2)o1`
Result :: 99.5

Query :: Subsequent entry: `Fc1cccc(-c2cc3nc4c(c(N5CCN(c6cnccn6)CC5)n3n2)CCCC4)c1`
Result :: 104

Query :: Subsequent entry: `CCOC(=O)c1cc(-c2ccc3c(c2)OCO3)nc2onc(C)c12`
Result :: 110

Query :: Subsequent entry: `CCOC(=O)c1oc2ccccc2c1NC(=O)c1cccc(OC)c1OC`
Result :: 96.5

Query :: Subsequent entry: CCOc1ccccc1C1CC(=O)Nc2cc3c(cc21)OCO3 (centres undefined)
Result :: 110

Query :: Subsequent entry: `Cc1cccc(NC(=O)c2cnc3sccn3c2=O)n1`
Result :: 99

Query :: Subsequent entry: CC(C)C(c1nnnn1C1CCCC1)N1CCN(C(=O)c2ccco2)CC1 (centres undefined)
Result :: 114

Query :: Subsequent entry: `CC(C)[C@H](NC(=O)NCc1ccc(Cl)cc1)C(=O)O`
Result :: 86

Query :: Subsequent entry: Cc1ccc(CCNC(=O)C2CCCN2S(=O)(=O)c2ccc3c(c2)CCC(=O)N3)cc1 (centres undefined)
Result :: 87.5

Query :: Subsequent entry: `O=C(Cn1cnc2c(nnn2-c2ccc(F)cc2)c1=O)NCc1ccco1`
Result :: 97
